- Tested on: Brassica napus
- ASSAY REMARKS: Herbicidal activity against Brassica napus (oilseed rape) assessed as root growth inhibition at 50 mg/L applied to germinated seeds measured after 65 hr at 28 degC
- Type: functional
- CONDITION NOTES: read-out: GI
METRIC: inhibition of growth at 50 µg/mL (%)

INSERT INTO assay_data (molecule, metric, measurement_units, data_value) VALUES
  ('COC(=O)COc1ccc(Oc2nc(OC)cc(OC)n2)cc1', 'inhibition of growth at 50 µg/mL', '%', 34.4),
  ('CCCCOC(=O)COc1ccc(Oc2nc(OC)cc(OC)n2)cc1', 'inhibition of growth at 50 µg/mL', '%', 13.4),
  ('CCOC(=O)COc1ccc(Oc2nc(C)cc(C)n2)cc1', 'inhibition of growth at 50 µg/mL', '%', 32.7),
  ('COC(=O)COc1ccc(Oc2nc(C)cc(C)n2)cc1', 'inhibition of growth at 50 µg/mL', '%', 26.7),
  ('CCOC(=O)[C@@H](C)Oc1ccc(Oc2cnc3cc(Cl)ccc3n2)cc1 [QUIZALOFOP-P-ETHYL]', 'inhibition of growth at 50 µg/mL', '%', 39.2),
  ('Cc1cc(C)nc(Oc2ccc(OCC(=O)OC(C)C)cc2)n1', 'inhibition of growth at 50 µg/mL', '%', 14.3);

Attribution: ChEMBL document CHEMBL3044991
